The origin of these recorded values is the supplement of paper PMC10126150.

System: ATP;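 also: ATP exposure 15 min at 22 °C before imaging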
Assay Method Text: switch fluorescence ratio, 500 uM ATP over buffer (Cy3 cluster intensity, sum of 5 cycles each) (fold (ratio)); higher = stronger signal-on switching upon ATP binding; sequences stand for … in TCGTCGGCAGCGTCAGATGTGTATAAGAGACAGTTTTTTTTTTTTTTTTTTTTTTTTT…TC
Condition Label: aptamer strand: ATP DNA aptamer (quencher-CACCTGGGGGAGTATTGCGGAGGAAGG + anchor), 100 nM annealed; ATP concentration: 500 uM
Quantity Kind: switch fluorescence ratio
Form field (numeric): enter value without unit.

Solved cases below.
Seq String | switch fluorescence ratio
TGATGAATTG | 1.04
ATTGAATGGC | 1.04
GTCTGTTATT | 1.01
TTTTATTTGC | 1.01
ACGTAGTGTC | 1.03

Here's the next entry for you.
What value of switch fluorescence ratio has been recorded for this entry: CTATACCGTT 1

###

System: ATP;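 also: ATP exposure 15 min at 22 °C before imaging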
Assay Method Text: switch fluorescence ratio, 500 uM ATP over buffer (Cy3 cluster intensity, sum of 5 cycles each) (fold (ratio)); higher = stronger signal-on switching upon ATP binding; sequences stand for … in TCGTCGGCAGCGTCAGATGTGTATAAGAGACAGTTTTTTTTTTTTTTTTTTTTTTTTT…TC
Condition Label: aptamer strand: ATP DNA aptamer (quencher-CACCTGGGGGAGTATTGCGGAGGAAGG + anchor), 100 nM annealed; ATP concentration: 500 uM
As shown below, each of these sequences has a reported switch fluorescence ratio value.
Give the figure by itself; no unit, no explanation.

In the examples that follow, each entry is paired with its recorded switch fluorescence ratio.
Seq String | switch fluorescence ratio
ATGTGGTATG | 0.984
GGTAACTTGG | 1.01
GAATATTTCT | 1.02
TTTTATGACC | 1.01
GATGGATAGG | 0.98
GGCGTATCAG | 0.979

Recorded switch fluorescence ratio for GGGGGCTGTT , please? 1

For the sequence shown here, AGATTGTGCT , give the reported switch fluorescence ratio. 0.975

Report switch fluorescence ratio for TATTACACGT please. 1.02

// switch fluorescence ratio lookup, key: TTTCGTATTG 0.991

###

Test system: ATP;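 also: ATP exposure 15 min at 22 °C before imaging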
Assay Method Text: switch fluorescence ratio, 500 uM ATP over buffer (Cy3 cluster intensity, sum of 5 cycles each) (fold (ratio)); higher = stronger signal-on switching upon ATP binding; sequences stand for … in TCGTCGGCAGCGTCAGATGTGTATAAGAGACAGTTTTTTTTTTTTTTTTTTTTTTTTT…TC
Condition Label: aptamer strand: ATP DNA aptamer (quencher-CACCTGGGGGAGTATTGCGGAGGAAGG + anchor), 100 nM annealed; ATP concentration: 500 uM
Classification field: yes (1) = switch fluorescence ratio at or over 1; no (0) = switch fluorescence ratio under 1.

Seq String | Class Assignment
AATGATATCG | yes (1)
CGGGTCATTT | no (0)

Quick check, switch fluorescence ratio >= 1? TTTACTGCCT yes (1)

###

Test system: ATP;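 also: ATP exposure 15 min at 22 °C before imaging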
Assay Method Text: switch fluorescence ratio, 500 uM ATP over buffer (Cy3 cluster intensity, sum of 5 cycles each) (fold (ratio)); higher = stronger signal-on switching upon ATP binding; sequences stand for … in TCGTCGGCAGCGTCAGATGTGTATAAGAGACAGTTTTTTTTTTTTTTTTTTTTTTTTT…TC
Condition Label: aptamer strand: ATP DNA aptamer (quencher-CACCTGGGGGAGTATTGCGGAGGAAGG + anchor), 100 nM annealed; ATP concentration: 500 uM
Quantity Kind: switch fluorescence ratio
The answer should be a number; do not append a unit.

Examples with answers:
Seq String | Target System | switch fluorescence ratio
TGTCTGCTTT | ATP | 0.997
GGGGCGTAGG | ATP | 1
CATAATTTTA | ATP | 1.01
GGTGTTTGAC | ATP | 0.999
AAAATGCGTT | ATP | 1.02

Given the sequence TAATTTTTG , what is its reported switch fluorescence ratio? 0.998

// lookup switch fluorescence ratio for GGATAGGTAT 1.02

###

Test system: ATP;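 also: ATP exposure 15 min at 22 °C before imaging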
Assay Method Text: switch fluorescence ratio, 500 uM ATP over buffer (Cy3 cluster intensity, sum of 5 cycles each) (fold (ratio)); higher = stronger signal-on switching upon ATP binding; sequences stand for … in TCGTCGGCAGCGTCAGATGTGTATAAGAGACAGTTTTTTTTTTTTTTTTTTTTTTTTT…TC
Condition Label: aptamer strand: ATP DNA aptamer (quencher-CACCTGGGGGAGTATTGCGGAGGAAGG + anchor), 100 nM annealed; ATP concentration: 500 uM
Quantity Kind: switch fluorescence ratio
# answer = number (no unit)

Field request: switch fluorescence ratio | item: AGTTTTTTGT 0.979

###

Test system: ATP;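 also: ATP exposure 15 min at 22 °C before imaging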
Assay Method Text: switch fluorescence ratio, 500 uM ATP over buffer (Cy3 cluster intensity, sum of 5 cycles each) (fold (ratio)); higher = stronger signal-on switching upon ATP binding; sequences stand for … in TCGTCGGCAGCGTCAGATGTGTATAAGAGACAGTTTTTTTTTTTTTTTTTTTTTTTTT…TC
Condition Label: aptamer strand: ATP DNA aptamer (quencher-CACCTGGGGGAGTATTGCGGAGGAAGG + anchor), 100 nM annealed; ATP concentration: 500 uM
switch fluorescence ratio listing for selected sequences.
// return just the number, without any unit appended

The following sequences have reported results that may help.
Seq String | Number
TTGGGGCCCG | 1.01
AATGTAAAGT | 1
ATGGGGTTCT | 0.992
GCCGCTGATG | 0.982
TTTTCAAATC | 1.02

Item under review: GTCAGGAATT . Reported switch fluorescence ratio? 0.998

###

Test system: ATP;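 also: ATP exposure 15 min at 22 °C before imaging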
Assay Method Text: switch fluorescence ratio, 500 uM ATP over buffer (Cy3 cluster intensity, sum of 5 cycles each) (fold (ratio)); higher = stronger signal-on switching upon ATP binding; sequences stand for … in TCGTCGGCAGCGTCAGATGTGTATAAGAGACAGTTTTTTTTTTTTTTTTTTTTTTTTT…TC
Condition Label: aptamer strand: ATP DNA aptamer (quencher-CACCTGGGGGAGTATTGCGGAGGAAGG + anchor), 100 nM annealed; ATP concentration: 500 uM
Label class 0 if switch fluorescence ratio falls below 1; label class 1 in every other case.

Seq String | Target System | Class Assignment
GAGGTTTTGG | ATP | class 1
AACCAATCGA | ATP | class 1
TCGGAGGCCT | ATP | class 1
ATTGAAAGCA | ATP | class 1
AACATAGTAG | ATP | class 0

Hello, I need to know if GATTATGCTG has measured switch fluorescence ratio not below 1. Thanks! class 1

Quick check: does ATCCGCGATT have switch fluorescence ratio greater than or equal to 1? class 1

Determine whether this sequence has switch fluorescence ratio no lower than 1: GTTCAAAAGG class 0

Textbook exercise: given the entry CGTGCTAGTC , state whether its switch fluorescence ratio is greater than or equal to 1. class 1

hey, is switch fluorescence ratio for this one >= 1? ACTAGGTTAT class 1

###

Test system: ATP;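 also: ATP exposure 15 min at 22 °C before imaging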
Assay Method Text: switch fluorescence ratio, 500 uM ATP over buffer (Cy3 cluster intensity, sum of 5 cycles each) (fold (ratio)); higher = stronger signal-on switching upon ATP binding; sequences stand for … in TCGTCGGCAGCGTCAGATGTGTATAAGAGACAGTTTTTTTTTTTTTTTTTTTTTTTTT…TC
Condition Label: aptamer strand: ATP DNA aptamer (quencher-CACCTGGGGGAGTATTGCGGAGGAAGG + anchor), 100 nM annealed; ATP concentration: 500 uM
Quantity Kind: switch fluorescence ratio
Form: value (number only, do not type unit).

Seq String | Number
GGGGAGAAGA | 0.966

Can you look up the measured switch fluorescence ratio of CCTAGGGGAG for me? 1.04

May I ask what switch fluorescence ratio has been recorded for TCAGACTTTG ? 0.978

# lookup: switch fluorescence ratio of CGCTCACGGT 1.07

Looking for the measured switch fluorescence ratio of ATGGAGAACT , can you help? 0.976

Fill in the blank: the reported switch fluorescence ratio of GGGGTCGGGT is ____. 0.99

Please report the recorded switch fluorescence ratio for ACGCTTCTTG . 1

Record request: switch fluorescence ratio value, item GTTACAATGG 0.991

Return reported switch fluorescence ratio; argument: ATCGGTCAGC 0.982

Entry under review: ATACGGGATT . Reported switch fluorescence ratio? 1.04

Data request, read-out switch fluorescence ratio, for AAGGCATGCG 1.04

I have this sequence here, GAGACGCTTT , and I need its recorded switch fluorescence ratio. 1.04

###

System: ATP;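 also: ATP exposure 15 min at 22 °C before imaging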
Assay Method Text: switch fluorescence ratio, 500 uM ATP over buffer (Cy3 cluster intensity, sum of 5 cycles each) (fold (ratio)); higher = stronger signal-on switching upon ATP binding; sequences stand for … in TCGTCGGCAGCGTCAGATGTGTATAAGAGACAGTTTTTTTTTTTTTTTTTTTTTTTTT…TC
Condition Label: aptamer strand: ATP DNA aptamer (quencher-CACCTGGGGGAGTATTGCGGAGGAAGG + anchor), 100 nM annealed; ATP concentration: 500 uM
Quantity Kind: switch fluorescence ratio
Quick one: just the number, no unit, thanks!

Seq String | switch fluorescence ratio
TAAGGGGGGT | 1.02
TTAGGGGATC | 1
AGTCAGTTTT | 1.02
GATGAGAGGT | 0.999
GCGGGTCGGG | 0.969
ACATAATATT | 1.06
TATCACTTTC | 1.06
AGAGGGGTAC | 0.992
TGGCGCCGGG | 0.996
CTGGTTCTTT | 0.99

Recorded switch fluorescence ratio of TTTGTTGCCT , please. 1.01
